protocolNotes: MTT assay (LC50) in HeLa-cells
Assay type: cell-based
assaySetup: human, after 24 hours
measurementName: CC50 at 24 h

Known CC50 at 24 h results, listed for orientation:
compound	measurementName	measuredValue
O=C(O)[C@H]1CSCN1C(=O)Cc1cccs1 [Compound 19]	CC50 at 24 h	> 150 µM
CN(c1cc(Cl)nc(SCc2ccc(C(=O)NCc3ccco3)cc2)n1)C1CCCCC1 [Compound 12]	CC50 at 24 h	> 150 µM
CC(C)(C)c1ccc(S(=O)(=O)N(Cc2ccc(OS(C)(=O)=O)cc2)CC2CCCO2)cc1 (stereo not drawn) [Control 1, reference compound]	CC50 at 24 h	> 150 µM
COc1nc(-c2ccc3c(c2)OCO3)n(-c2ccc(NC(=O)CSc3ccccc3)cc2)n1 [Compound 9]	CC50 at 24 h	141 µM
CCOc1nc(-c2ccccc2F)n(-c2ccc(NC(=O)CSc3ccccc3)cc2)n1 [Compound 11]	CC50 at 24 h	142 µM

# evaluate next
[ask] Which CC50 at 24 h value is on record for CCOc1nc(-c2cccc(F)c2)n(-c2ccc(NC(=O)Cc3cccs3)cc2)n1 [Compound 10] ?
[reply] > 150 µM

###

targetOrSystem: sec7-domain of Gea2 (Saccharomyces cerevisiae, UniProt P39993)
Construct: 1 μM of the purified sec7-domain of cytohesin-1, cytohesin-2 and Gea2; made in house; host or cells: E. coli BL21DE3
Sequence (P39993 570-714): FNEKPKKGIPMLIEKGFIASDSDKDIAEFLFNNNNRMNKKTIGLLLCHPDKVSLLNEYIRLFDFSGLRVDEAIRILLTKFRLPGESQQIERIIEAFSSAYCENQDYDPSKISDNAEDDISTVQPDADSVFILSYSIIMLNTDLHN
protocolNotes: GDP/GTP exchange on NΔ17-ARF1 catalysed by sec7-domain (tryptophan fluorescence)
Assay type: biochemical
assaySetup: 1 μM NΔ17-ARF1, 1 μM sec7-domain, compounds 1 μM to 30 μM; read-out: IC50 Gea2-sec7
measurementName: IC50 (µM)
Please respond with the number in µM and leave the unit unwritten.

[ask] Which IC50 value is on record for C[C@H]1CCC/C=C/[C@@H]2C[C@H](O)C[C@H]2[C@H](O)/C=C/C(=O)O1 [Brefeldin A, reference compound] ?
[reply] 23

###

targetOrSystem: sec7-domain of Gea2 (Saccharomyces cerevisiae)
Construct: 1 μM of the purified sec7-domain of cytohesin-1, cytohesin-2 and Gea2; made in house; host or cells: E. coli BL21DE3
protocolNotes: GDP/GTP exchange on NΔ17-ARF1 catalysed by sec7-domain (tryptophan fluorescence)
Type: biochemical
// pIC50 lookup, one value per entry
Answer as the number alone; pIC50 is minus log10 of concentration in mol/L.

molecule	pIC50
CCOc1nc(-c2cccc(F)c2)n(-c2ccc(NC(=O)Cc3cccs3)cc2)n1 [Compound 10]	4.17
CN(c1cc(Cl)nc(SCc2ccc(C(=O)NCc3ccco3)cc2)n1)C1CCCCC1 [Compound 12]	4.66
CCOc1nc(-c2ccccc2F)n(-c2ccc(NC(=O)CSc3ccccc3)cc2)n1 [Compound 11]	4.38

# evaluate next
[ask] Which pIC50 value is on record for COc1nc(-c2ccc3c(c2)OCO3)n(-c2ccc(NC(=O)CSc3ccccc3)cc2)n1 [Compound 9] ?
[reply] 4.19
